Source: patent US20240408169A1

Measured IC50 of individual entries
assay_system: CyclinE1/CDK2 (Homo sapiens)
Construct: purchased Eurofins, discovery 14-475
assay_details: Fluorescence Polarization (FP) competitive binding assay, Cyclin E1/Cdk2;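 also: readings taken after two-hour equilibration at room temperature in HEPES buffer with NaCl, DTT, NP-40 and BSA, IC50 fitted from eight-concentration serial dilution series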
condition_details: 10 nM Cyclin E1/Cdk2, 2 nM FAM probe; average of 2-3 independent experiments; read-out: Cyclin E FP IC50
*1 amine or outer side, *2 acyl side, *3 side chain or, on linkers, in order; H or OH if unused. Where a SMILES comes first, the peptide text is derived from it. Bridges are numbered along the chain shown (N, C = ends). [ ]: non-standard residue; d: D form. The star is where a group is joined. NMehhhLys(Me) = CN([C@@H](CCCCCCCN(C)[*:3])C(=O)[*:2])[*:1]; X194 = CN([C@@H](Cc1cc(Cl)ccc1-c1ccnnc1)C(=O)[*:2])[*:1]; cBuCO(3,3-F2-1-CF3) = O=C(C1(C(F)(F)F)CC(F)(F)C1)*; X161 = Cc1ccc(F)cc1C[C@@H](C(=O)[*:2])N(C)[*:1]; Pro(trans-4-F) = O=C(O)[C@@H]1C[C@@H](F)CN1; Gly(cPr) = N[C@H](C(=O)O)C1CC1
parameter: IC50 (nM)

{"compound": "CC(C)C[C@@H]1NC(=O)[C@@H](N(C)C(=O)[C@@H](NC(=O)[C@@H]2C[C@@H](F)CN2C(=O)C2(C(F)(F)F)CC(F)(F)C2)C2CC2)CC=CCCCCNC(=O)[C@H](Cc2cc(Cl)ccc2-c2cnn(CCO)c2)N(C)C1=O", "assay_system": "CyclinE1/CDK2 (Homo sapiens)", "assay_result": 740}
{"compound": "Cc1ccc(F)cc1C[C@H]1C(=O)N(C)CCCCCCC[C@H](N(C)C(=O)[C@@H](NC(=O)[C@@H]2C[C@@H](F)CN2C(=O)C2(C(F)(F)F)CC(F)(F)C2)C2CC2)C(=O)N[C@@H](CC(C)C)C(=O)N1C [Example 123] ({cBuCO(3,3-F2-1-CF3)}-[Pro(trans-4-F)][Gly(cPr)][NMehhhLys(Me)]L[X161]; lactam 3-C)", "assay_system": "CyclinE1/CDK2 (Homo sapiens)", "assay_result": 120}
{"compound": "CC(C)C[C@@H]1NC(=O)[C@@H](N(C)C(=O)[C@@H](NC(=O)[C@@H]2C[C@@H](F)CN2C(=O)C2(C(F)(F)F)CC(F)(F)C2)C2CC2)CCCCCCCN(C)C(=O)[C@H](Cc2cc(Cl)ccc2-c2ccnnc2)N(C)C1=O [Example 292] ({cBuCO(3,3-F2-1-CF3)}-[Pro(trans-4-F)][Gly(cPr)][NMehhhLys(Me)]L[X194]; lactam 3-C)", "assay_system": "CyclinE1/CDK2 (Homo sapiens)", "assay_result": 2880}

---

Tested on: NCI-H1048 cells
assay_details: MTT proliferation assay, NCI-H1048;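 also: Dose-response in 96-well plates over 8 or 10 concentration points, with exposure spanning 3-4 cell doublings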
Format: cell-based
condition_details: 5 days compound exposure, 1:3 serial dilution starting at 10 μM
*1 amine or outer side, *2 acyl side, *3 side chain or, on linkers, in order; H or OH if unused. Where a SMILES comes first, the peptide text is derived from it. Bridges are numbered along the chain shown (N, C = ends). [ ]: non-standard residue; d: D form. The star is where a group is joined. X169 = CN([C@@H](Cc1cc(Cl)ccc1-c1ccc(-c2cnn3c2COCC3)cc1)C(=O)[*:2])[*:1]; NMePhe(5-Cl,2-O(2-Pym)) = CN[C@@H](Cc1cc(Cl)ccc1Oc1ncccn1)C(=O)O; NMehhhLys(Me) = CN([C@@H](CCCCCCCN(C)[*:3])C(=O)[*:2])[*:1]; NMe(hhhLys) = CN([C@@H](CCCCCCCN[*:3])C(=O)[*:2])[*:1]; NMe3Pal(2-OMe,5-Cl) = CN[C@@H](Cc1cc(Cl)cnc1OC)C(=O)O; cBuCO(3,3-F2-1-CF3) = O=C(C1(C(F)(F)F)CC(F)(F)C1)*; Pro(trans-4-F) = O=C(O)[C@@H]1C[C@@H](F)CN1; Gly(cPr) = N[C@H](C(=O)O)C1CC1
Measured GI50 of individual entries

{"compound": "CC(C)C[C@@H]1NC(=O)[C@@H](N(C)C(=O)[C@@H](NC(=O)[C@@H]2C[C@@H](F)CN2C(=O)C2(C(F)(F)F)CC(F)(F)C2)C2CC2)CCCCCCCNC(=O)[C@H](Cc2cc(Cl)ccc2Oc2ncccn2)N(C)C1=O [Example 154] ({cBuCO(3,3-F2-1-CF3)}-[Pro(trans-4-F)][Gly(cPr)][NMe(hhhLys)]L[NMePhe(5-Cl,2-O(2-Pym))]; lactam 3-C)", "output_unit": "nM", "GI50": 20}
{"compound": "CC(C)C[C@@H]1NC(=O)[C@@H](N(C)C(=O)[C@@H](NC(=O)[C@@H]2C[C@@H](F)CN2C(=O)C2(C(F)(F)F)CC(F)(F)C2)C2CC2)CCCCCCCN(C)C(=O)[C@H](Cc2cc(Cl)ccc2-c2ccc(-c3cnn4c3COCC4)cc2)N(C)C1=O [Example 378] ({cBuCO(3,3-F2-1-CF3)}-[Pro(trans-4-F)][Gly(cPr)][NMehhhLys(Me)]L[X169]; lactam 3-C)", "output_unit": "nM", "GI50": 10}
{"compound": "COc1ncc(Cl)cc1C[C@H]1C(=O)NCCCCCCC[C@H](N(C)C(=O)[C@@H](NC(=O)[C@@H]2C[C@@H](F)CN2C(=O)C2(C(F)(F)F)CC(F)(F)C2)C2CC2)C(=O)N[C@@H](CC(C)C)C(=O)N1C [Example 275] ({cBuCO(3,3-F2-1-CF3)}-[Pro(trans-4-F)][Gly(cPr)][NMe(hhhLys)]L[NMe3Pal(2-OMe,5-Cl)]; lactam 3-C)", "output_unit": "nM", "GI50": 10}

---

Measured log10(GI50) of individual entries
System: OVCAR3 cells
assay_details: MTT proliferation assay, OVCAR3;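 also: compound given as an 8- or 10-point series, one day after plating, with exposure covering roughly 3-4 cell doublings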
Format: cell-based
condition_details: 5 days compound exposure, 1:3 serial dilution starting at 10 μM
*1 amine or outer side, *2 acyl side, *3 side chain or, on linkers, in order; H or OH if unused. Where a SMILES comes first, the peptide text is derived from it. Bridges are numbered along the chain shown (N, C = ends). [ ]: non-standard residue; d: D form. The star is where a group is joined. NMePhe(2-(4-MorPh),5-Cl) = CN[C@@H](Cc1cc(Cl)ccc1-c1ccc(N2CCOCC2)cc1)C(=O)O; X103 = CN1CCC(Oc2ccc(-c3ccc(Cl)cc3C[C@@H](C(=O)[*:2])N(C)[*:1])cc2)CC1; NMePhe(5-Cl,2-O(2-Pym)) = CN[C@@H](Cc1cc(Cl)ccc1Oc1ncccn1)C(=O)O; X116 = CN([C@@H](Cc1cc(Cl)ccc1-c1cnc2c(c1)ncn2C)C(=O)[*:2])[*:1]; X170 = CN([C@@H](Cc1cc(Cl)ccc1-c1ccc2nonc2c1)C(=O)[*:2])[*:1]; NMe3Pal(2-OiBu,5-Cl) = CN[C@@H](Cc1cc(Cl)cnc1OCC(C)C)C(=O)O; NMehhhLys(Me) = CN([C@@H](CCCCCCCN(C)[*:3])C(=O)[*:2])[*:1]; NMe3Pal(2-OcPr,5-F) = CN[C@@H](Cc1cc(F)cnc1OC1CC1)C(=O)O; X194 = CN([C@@H](Cc1cc(Cl)ccc1-c1ccnnc1)C(=O)[*:2])[*:1]; NMe(hhhLys) = CN([C@@H](CCCCCCCN[*:3])C(=O)[*:2])[*:1]; Oxane2carbonyl(2R-CF3) = O=C([C@@]1(C(F)(F)F)CCCCO1)*; Cyclobutanecarbonyl(1-CF3) = O=C(C1(C(F)(F)F)CCC1)*; cBuCO(3,3-F2-1-CF3) = O=C(C1(C(F)(F)F)CC(F)(F)C1)*; Pro(trans-4-F) = O=C(O)[C@@H]1C[C@@H](F)CN1; Gly(cPr) = N[C@H](C(=O)O)C1CC1
parameter: log10(GI50) (log10 of the value in nM)

{"compound": "CC(C)C[C@@H]1NC(=O)[C@@H](N(C)C(=O)[C@@H](NC(=O)[C@@H]2C[C@@H](F)CN2C(=O)C2(C(F)(F)F)CC(F)(F)C2)C2CC2)CC=CCCCCNC(=O)[C@H](Cc2cc(Cl)ccc2Oc2ncccn2)N(C)C1=O", "assay_system": "OVCAR3 cells", "log10(GI50)": 2.65}
{"compound": "CC(C)C[C@@H]1NC(=O)[C@@H](N(C)C(=O)[C@@H](NC(=O)[C@@H]2C[C@@H](F)CN2C(=O)C2(C(F)(F)F)CC(F)(F)C2)C2CC2)CCCCCCCN(C)C(=O)[C@H](Cc2cc(Cl)ccc2-c2ccc(OC3CCN(C)CC3)cc2)N(C)C1=O [Example 371] ({cBuCO(3,3-F2-1-CF3)}-[Pro(trans-4-F)][Gly(cPr)][NMehhhLys(Me)]L[X103]; lactam 3-C)", "assay_system": "OVCAR3 cells", "log10(GI50)": 1.00}
{"compound": "CC(C)COc1ncc(Cl)cc1C[C@H]1C(=O)N(C)CCCCCCC[C@H](N(C)C(=O)[C@@H](NC(=O)[C@@H]2C[C@@H](F)CN2C(=O)[C@@]2(C(F)(F)F)CCCCO2)C2CC2)C(=O)N[C@@H](CC(C)C)C(=O)N1C [Example 229] ({Oxane2carbonyl(2R-CF3)}-[Pro(trans-4-F)][Gly(cPr)][NMehhhLys(Me)]L[NMe3Pal(2-OiBu,5-Cl)]; lactam 3-C)", "assay_system": "OVCAR3 cells", "log10(GI50)": 1.30}
{"compound": "CC(C)C[C@@H]1NC(=O)[C@@H](N(C)C(=O)[C@@H](NC(=O)[C@@H]2C[C@@H](F)CN2C(=O)C2(C(F)(F)F)CC(F)(F)C2)C2CC2)CCCCCCCN(C)C(=O)[C@H](Cc2cc(Cl)ccc2-c2cnc3c(c2)ncn3C)N(C)C1=O [Example 177] ({cBuCO(3,3-F2-1-CF3)}-[Pro(trans-4-F)][Gly(cPr)][NMehhhLys(Me)]L[X116]; lactam 3-C)", "assay_system": "OVCAR3 cells", "log10(GI50)": 1.00}
{"compound": "CC(C)C[C@@H]1NC(=O)[C@@H](N(C)C(=O)[C@@H](NC(=O)[C@@H]2C[C@@H](F)CN2C(=O)C2(C(F)(F)F)CC(F)(F)C2)C2CC2)CCCCCCCN(C)C(=O)[C@H](Cc2cc(Cl)ccc2-c2ccc3nonc3c2)N(C)C1=O [Example 170] ({cBuCO(3,3-F2-1-CF3)}-[Pro(trans-4-F)][Gly(cPr)][NMehhhLys(Me)]L[X170]; lactam 3-C)", "assay_system": "OVCAR3 cells", "log10(GI50)": 2.30}
{"compound": "CC(C)COc1ncc(Cl)cc1C[C@H]1C(=O)N(C)CCCCCCC[C@H](N(C)C(=O)[C@@H](NC(=O)[C@@H]2C[C@@H](F)CN2C(=O)C2(C(F)(F)F)CC(F)(F)C2)C2CC2)C(=O)N[C@@H](CC(C)C)C(=O)N1C [Example 228] ({cBuCO(3,3-F2-1-CF3)}-[Pro(trans-4-F)][Gly(cPr)][NMehhhLys(Me)]L[NMe3Pal(2-OiBu,5-Cl)]; lactam 3-C)", "assay_system": "OVCAR3 cells", "log10(GI50)": 1.90}
{"compound": "CC(C)C[C@@H]1NC(=O)[C@@H](N(C)C(=O)[C@@H](NC(=O)[C@@H]2C[C@@H](F)CN2C(=O)C2(C(F)(F)F)CCC2)C2CC2)CCCCCCCNC(=O)[C@H](Cc2cc(F)cnc2OC2CC2)N(C)C1=O [Example 134] ({Cyclobutanecarbonyl(1-CF3)}-[Pro(trans-4-F)][Gly(cPr)][NMe(hhhLys)]L[NMe3Pal(2-OcPr,5-F)]; lactam 3-C)", "assay_system": "OVCAR3 cells", "log10(GI50)": 1.60}
{"compound": "CC(=O)N1C2C=C(c3ccc(F)cc3C[C@H]3C(=O)N(C)CCCCCCC[C@H](N(C)C(=O)[C@@H](NC(=O)[C@@H]4C[C@@H](F)CN4C(=O)C4(C(F)(F)F)CC(F)(F)C4)C4CC4)C(=O)N[C@@H](CC(C)C)C(=O)N3C)CC1CC2 (some centres unmarked)", "assay_system": "OVCAR3 cells", "log10(GI50)": 1.60}
{"compound": "CC(C)C[C@@H]1NC(=O)[C@@H](N(C)C(=O)[C@@H](NC(=O)[C@@H]2C[C@@H](F)CN2C(=O)C2(C(F)(F)F)CC(F)(F)C2)C2CC2)CCCCCCCNC(=O)[C@H](Cc2cc(Cl)ccc2-c2ccnnc2)N(C)C1=O [Example 291] ({cBuCO(3,3-F2-1-CF3)}-[Pro(trans-4-F)][Gly(cPr)][NMe(hhhLys)]L[X194]; lactam 3-C)", "assay_system": "OVCAR3 cells", "log10(GI50)": 2.18}
{"compound": "CC(C)C[C@@H]1NC(=O)[C@@H](N(C)C(=O)[C@@H](NC(=O)[C@@H]2C[C@@H](F)CN2C(=O)C2(C(F)(F)F)CCC2)C2CC2)CCCCCCCNC(=O)[C@H](Cc2cc(Cl)ccc2Oc2ncccn2)N(C)C1=O [Example 158] ({Cyclobutanecarbonyl(1-CF3)}-[Pro(trans-4-F)][Gly(cPr)][NMe(hhhLys)]L[NMePhe(5-Cl,2-O(2-Pym))]; lactam 3-C)", "assay_system": "OVCAR3 cells", "log10(GI50)": 1.30}
{"compound": "COC(=O)CC[C@H](NC(=O)[C@@H]1C[C@@H](F)CN1C(=O)C1(C(F)(F)F)CC(F)(F)C1)C(=O)N(C)[C@H]1CCCCCCCN(C)C(=O)[C@H](Cc2cc(Cl)ccc2-c2ccc(N3CCOCC3)cc2)N(C)C(=O)[C@H](CC(C)C)NC1=O [Example 415] ({cBuCO(3,3-F2-1-CF3)}-[Pro(trans-4-F)]E(OMe)[NMehhhLys(Me)]L[NMePhe(2-(4-MorPh),5-Cl)]; lactam 3-C)", "assay_system": "OVCAR3 cells", "log10(GI50)": 1.00}
